# Test system: M. tuberculosis H37Rv growth inhibition
# experiment description: Mycobacterium tuberculosis H37Rv growth inhibition, putative kinase inhibitor library, confirmatory dose response (AID 2842);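 also: bacteria incubated one week before Alamar blue readout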
# IC90 annotations

sample smiles: Cc1ccc2nc(NNC(=O)c3nc4ccccc4s3)sc2c1
IC90: 6.73 µg/mL

sample smiles: COc1cccc2sc(Nc3nc4c(F)cccc4s3)nc12
IC90: 14.5 µg/mL

sample smiles: CSc1cccc(-c2nnc(NC(=O)/C=C/c3cccs3)o2)c1
IC90: 4.49 µg/mL

sample smiles: COc1cc(/C=C(\C#N)c2nc(-c3ccc(C)cc3)cs2)cc([N+](=O)[O-])c1O
IC90: 3.26 µg/mL

sample smiles: Cc1c(CCC#N)c(=O)n2c([nH]c3ccccc32)c1C#N
IC90: 2.29 µg/mL

## Input Recorded IC90 for Cc1ccc(C)c(-c2nnc(NC(=O)c3ccc(Cl)cc3)o2)c1 , please?
## Output 22.7 µg/mL

## Input // repeat for O=C(Nc1nnc(-c2ccc(F)cc2)o1)c1cccc([N+](=O)[O-])c1 and report
## Output 13.2 µg/mL

## Input Try this compound next: COc1cc2c3nnc(-c4ccc(C)c(C)c4)c-3cn(Cc3ccccc3)c2cc1OC
## Output 7.35 µg/mL

## Input Next compound up: Cc1ccc(-c2nnc(NC(=O)c3ccc(F)cc3)o2)c(C)c1
## Output 26.3 µg/mL

## Input Next up: N#Cc1ccccc1NC(=O)C(=O)NCCSc1ncc(-c2ccccc2)[nH]1
## Output 4.48 µg/mL

## Input Repeat for the following compound: O=Nc1c(-c2ccccc2)cc2ccccn12
## Output 3.32 µg/mL

---

# Test system: M. tuberculosis H37Rv growth inhibition
# experiment description: Mycobacterium tuberculosis H37Rv growth inhibition, putative kinase inhibitor library, confirmatory dose response (AID 2842);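 also: bacteria incubated one week before Alamar blue readout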
Here the recorded IC90 is given for each entry.

Worked examples, 3 compounds total:
sample smiles: COc1cccc2sc(Nc3nc4c(s3)C(=O)CC(C)(C)C4)nc12
metric: IC90
result: 7.52 µg/mL

sample smiles: COc1cccc(OCCN2CCN(c3cc(C)nc4c(-c5ccccc5)cnn34)CC2)c1
metric: IC90
result: 12 µg/mL

sample smiles: O=C(COc1ccc2ccccc2c1)Nc1nnc2n1CCS2
metric: IC90
result: 23.6 µg/mL

## Input Requested field: IC90. Item: CCS(=O)(=O)c1ccc(C(=O)Nc2nnc(-c3ccc(Br)cc3)o2)cc1
## Output 24.6 µg/mL

## Input Same lookup for N#C/C(=C(\O)c1ccc2c(c1)OCCO2)c1nc2ccccc2s1 , please.
## Output 37.7 µg/mL

---

# Tested on: M. tuberculosis H37Rv growth inhibition
# experiment description: Mycobacterium tuberculosis H37Rv growth inhibition, putative kinase inhibitor library, confirmatory dose response (AID 2842);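 also: bacteria incubated one week before Alamar blue readout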
metric: IC90

## Input State its IC90 on M. tuberculosis H37Rv growth inhibition: CS(=O)(=O)Nc1cccc(C2=NN(c3nc(-c4ccccc4)c4cc(Cl)ccc4n3)C(c3ccco3)C2)c1 (stereo unspecified)
## Output 1.42 µg/mL

## Input // query: CC1(C)Cc2c(sc(NC(=O)c3ccc(Cc4ccccc4)cc3)c2C(N)=O)C(C)(C)N1
## Output 10.4 µg/mL

## Input Also, COc1cccc(NC(=O)C2C(=O)CN(c3ccccc3)C2=O)c1 (stereo unspecified) please.
## Output 4.41 µg/mL

## Input Similarly, Cc1nc2c(ccc3nc(NC(=O)Cc4ccccc4)sc32)s1 ?
## Output 2.92 µg/mL

## Input Continue with O=C(CS(=O)(=O)c1ccccc1)Nc1cccc2c1C(=O)c1ccccc1C2=O
## Output 20.9 µg/mL

## Input Same question for O=C(NNc1nc2ccc(Cl)cc2s1)c1cc(-c2cccs2)nc2ccccc12 please.
## Output 30.9 µg/mL

## Input Next molecule up: O=C(Nc1nnc(-c2ccccc2)o1)c1nc2ccccc2s1
## Output 5.84 µg/mL

## Input Please answer likewise for c1ccc(CSc2ncnc3nc[nH]c23)cc1
## Output 19.5 µg/mL

---

# Tested on: M. tuberculosis H37Rv growth inhibition
# experiment description: Mycobacterium tuberculosis H37Rv growth inhibition, putative kinase inhibitor library, confirmatory dose response (AID 2842);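 also: bacteria incubated one week before Alamar blue readout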
metric: IC90

## Input Query for M. tuberculosis H37Rv growth inhibition: what IC90 does the record show for O=C(Nc1nnc(-c2ccc3c(c2)CCCC3)o1)c1ccc([N+](=O)[O-])o1 ?
## Output 10.6 µg/mL

## Input What would you report for Cc1ccc(C)c(-c2nnc(NC(=O)C3CC3)o2)c1 ?
## Output 1.46 µg/mL

## Input For C=CCOC(=O)COc1ccc2cc(-c3ccccc3)c(=O)oc2c1 then?
## Output 1.22 µg/mL

## Input Item: O=C(CCc1ccccc1)Nc1nnc(-c2cccs2)o1
## Output 42.8 µg/mL

---

# Tested on: M. tuberculosis H37Rv growth inhibition
# experiment description: Mycobacterium tuberculosis H37Rv growth inhibition, putative kinase inhibitor library, confirmatory dose response (AID 2842);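 also: bacteria incubated one week before Alamar blue readout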
Reported IC90 values are given for each entry in this list.

Example compounds with recorded IC90:
sample smiles: O=C(Nc1nnc(-c2ccccc2)o1)c1cc(-c2cccs2)nc2ccccc12
IC90: 0.72 µg/mL
//
sample smiles: Cc1ccc2sc(N(CCCn3ccnc3)C(=O)c3ccco3)nc2c1C
IC90: 0.58 µg/mL
//
sample smiles: O=C(c1ccco1)N(CCCn1ccnc1)c1nc2ccccc2s1
IC90: 4.28 µg/mL

## Input Which IC90 reading was recorded for the compound O=C(c1ccco1)N(CCCn1ccnc1)c1nc2c(F)cc(F)cc2s1 ?
## Output 0.75 µg/mL

## Input Please give the result for O=C(Nc1nnc(-c2ccc(F)cc2)o1)c1cccc(C(F)(F)F)c1 too.
## Output 11.7 µg/mL

## Input One more compound: COc1cccc2sc(N(CCCn3ccnc3)C(=O)c3ccco3)nc12
## Output 12.4 µg/mL

## Input Subsequent entry: OCc1nc2ccccc2n1CCCCOc1ccc(Cl)cc1
## Output 7.39 µg/mL

## Input Again, but for O=C(Nc1nnc(-c2ccc(Cl)s2)o1)C1CCCCC1
## Output 6.45 µg/mL

## Input Request: O=C(CCSc1ccccc1)Nc1nnc(-c2ccc3c(c2)CCCC3)o1
## Output 1.93 µg/mL

## Input Also need Cc1ccc(-c2nnc(NC(=O)c3ccc(Br)s3)o2)c(C)c1 , thanks.
## Output 2.17 µg/mL

## Input Now give it for COc1cccc(-c2csc(NC(=O)c3ccc4c(c3)OCCO4)n2)c1 too.
## Output 14.3 µg/mL

---

# Test system: M. tuberculosis H37Rv growth inhibition
# experiment description: Mycobacterium tuberculosis H37Rv growth inhibition, putative kinase inhibitor library, confirmatory dose response (AID 2842);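 also: bacteria incubated one week before Alamar blue readout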
metric: IC90

sample smiles: O=C(Nc1nnc(C2=COCCO2)o1)c1ccc(-c2ccccc2)cc1
IC90: 8.24 µg/mL
--
sample smiles: Clc1cccc(Nc2ccc(NCc3ccccc3)nn2)c1
IC90: 6.71 µg/mL
--
sample smiles: COc1ccccc1Cn1cc2c(-c3ccc(C)cc3)nnc-2c2cc(C)ccc21
IC90: 3.48 µg/mL
--
sample smiles: COc1ccc(-c2nnc3c4cc(OC)c(OC)cc4n(Cc4ccccc4)cc2-3)cc1
IC90: 11 µg/mL
--
sample smiles: COc1ccc(-c2nnc(NC(=O)c3ccccc3Br)o2)cc1
IC90: 82.2 µg/mL

Next:
## Input Report IC90 for CCOc1ccc(NC(=O)c2c(Cl)ccc(Cl)c2Cl)cc1 please.
## Output 11.7 µg/mL

---

# Tested on: M. tuberculosis H37Rv growth inhibition
# experiment description: Mycobacterium tuberculosis H37Rv growth inhibition, putative kinase inhibitor library, confirmatory dose response (AID 2842);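 also: bacteria incubated one week before Alamar blue readout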
metric: IC90

Consider the worked cases shown below.
molecule: Cc1ccc(N2C(=O)C(Cl)=C(Nc3cc(Cl)ccc3O)C2=O)cc1
system: M. tuberculosis H37Rv growth inhibition
IC90: 25.4 µg/mL
--
molecule: COc1ccc(C(=O)Nc2nnc(C3=COCCO3)o2)cc1
system: M. tuberculosis H37Rv growth inhibition
IC90: 3.3 µg/mL
--
molecule: COc1cc(-c2nnc(NC(=O)C(C)(C)C)o2)cc(OC)c1OC
system: M. tuberculosis H37Rv growth inhibition
IC90: 14.5 µg/mL
--
molecule: O=C(NCCSc1c[nH]c2ccccc12)Nc1c[nH]c2ccccc12
system: M. tuberculosis H37Rv growth inhibition
IC90: 10.2 µg/mL
--
molecule: Cc1ccc(C)c(-c2nnc(NC(=O)Cc3ccccc3)o2)c1
system: M. tuberculosis H37Rv growth inhibition
IC90: 18.2 µg/mL
--
molecule: COC(=O)CSc1ncnc2c1nnn2Cc1ccc(F)cc1
system: M. tuberculosis H37Rv growth inhibition
IC90: 1.55 µg/mL
--
molecule: Cc1ccc(-c2nnc(NC(=O)Cc3ccccc3)o2)c(C)c1
system: M. tuberculosis H37Rv growth inhibition
IC90: 14.8 µg/mL
--
molecule: N/C(=N\OC(=O)c1ccccc1F)c1ccccn1
system: M. tuberculosis H37Rv growth inhibition
IC90: 18.7 µg/mL
--
molecule: Cc1ccc(-c2nnc(NC(=O)C3=COCCO3)o2)c(C)c1
system: M. tuberculosis H37Rv growth inhibition
IC90: 7.35 µg/mL
--
molecule: Cc1ccccc1C(=O)Nc1nnc(-c2ccccn2)o1
system: M. tuberculosis H37Rv growth inhibition
IC90: 15.2 µg/mL

## Input Report IC90 for CC1(C)CC(=O)c2sc(NC(=O)c3ccc(NS(=O)(=O)c4ccc(Cl)cc4)cc3)nc2C1 please.
## Output 15.5 µg/mL

## Input And COc1cccc2sc(N(CCCn3ccnc3)C(=O)Cc3ccc(F)cc3)nc12 ?
## Output 3.48 µg/mL
